method.description: In vitro metabolism: disappearance of parent compound in human liver microsomes
Type: in vitro ADME
measurement.conditions: 5 uM compound, 0.5 mg/ml protein, 2 mM NADPH, 30 minutes 37° C.
parameter: Human % rem. 30′ (%)

compound	result.units	Human % rem. 30′
COc1nc(Nc2ccccc2)nc(OC)c1NC(=O)c1ccc(Cc2cc3c(cc2C)C(C)(C)OC3(C)C)o1 [Example D1]	%	82
COc1nc(NCCN2CCNCC2)nc(OC)c1NC(=O)c1ccc(Cc2cc3c(cc2C)C(C)(C)OC3(C)C)o1	%	86
COCCOc1nc(OC)c(NC(=O)c2ccc(Cc3cc4c(cc3C)CCCC4(C)C)o2)c(OC)n1 [Example E1]	%	48
COc1nc(NCCCN2CCOCC2)nc(OC)c1NC(=O)c1ccc(Cc2cc3c(cc2C)CCCC3(C)C)o1	%	39
COc1nc(N(CCCN2CCCCC2)CCCN2CCCCC2)nc(OC)c1NC(=O)c1ccc(Cc2cc3c(cc2C)C(C)(C)OC3(C)C)o1	%	89

1: COc1nc(N(CCCN)CCCN)nc(OC)c1NC(=O)c1ccc(Cc2cc3c(cc2C)C(C)(C)OC3(C)C)o1
2: COc1nc(NCCCN2CCOCC2)nc(OC)c1NC(=O)c1ccc(Cc2cc3c(cc2C)C(C)(C)CCC3(C)C)o1
Lower value for measured Human % rem. 30′? Options: 1 , 2 Identify your selection by its label.
2

A: COc1nc(NCCCN2CCOCC2)nc(OC)c1NC(=O)c1ccc(Cc2cc3c(cc2Cl)C(C)(C)CCC3(C)C)o1
B: CNc1nc(OC)c(NC(=O)c2ccc(Cc3cc4c(cc3C)C(C)(C)CCC4(C)C)o2)c(OC)n1
Lower value for measured Human % rem. 30′? Options: A , B Identify your selection by its label.
B

----------
method.description: In vitro metabolism: disappearance of parent compound in rat liver microsomes (male, female)
Type: in vitro ADME
measurement.conditions: male rat liver microsomes, 5 uM compound, 30 minutes 37° C.
Description: Human, rat, dog, and monkey liver microsomes were isolated by differential centrifugation. Specimens of human liver were obtained from the International Institute for the Advancement of Medicine (Scranton, Pa.). The disappearance of the parent compound was studied in a mixture containing 5 uM compound, 0.5 mg/ml microsomal protein, and 2 mM NADPH in 50 mM K phosphate buffer, pH 7.4. […] The reaction was terminated by the addition of acetonitrile and compounds analyzed by LC-MS as described above.
parameter: Male Rat (MR) % rem. 30′ (%)

# count of solved cases: 4
1. COc1nc(OC)c(NC(=O)c2ccc(Cc3cc4c(cc3C)C(C)(C)OC4(C)C)o2)c(OC)n1 11
2. COc1nc(NCCCN2CCOCC2)nc(OC)c1NC(=O)c1ccc(Cc2cc3c(cc2C)C(C)(C)CCC3(C)C)o1 38
3. COc1nc(NCCCCN(C)C)nc(OC)c1NC(=O)c1ccc(Cc2cc3c(cc2C)C(C)(C)OC3(C)C)o1 42
4. COc1nc(N(CCCN2CCCCC2)CCCN2CCCCC2)nc(OC)c1NC(=O)c1ccc(Cc2cc3c(cc2C)C(C)(C)OC3(C)C)o1 87

1: COc1nc(NCCCN2CCOCC2)nc(OC)c1NC(=O)c1ccc(Cc2cc3c(cc2Cl)C(C)(C)CCC3(C)C)o1
2: COc1nc(OCCO)nc(OC)c1NC(=O)c1ccc(Cc2cc3c(cc2C)C(C)(C)OC3(C)C)o1
3: COc1nc(NCCCNCCCN)nc(OC)c1NC(=O)c1ccc(Cc2cc3c(cc2C)C(C)(C)OC3(C)C)o1
4: COc1nc(OC)c(NC(=O)c2ccc(Cc3cc4c(cc3C)C(C)(C)CCC4(C)C)o2)c(OC)n1
5: COc1nc(N(C)C)nc(OC)c1NC(=O)c1ccc(Cc2cc3c(cc2C)C(C)(C)CCC3(C)C)o1
Ordering: ascending Male Rat (MR) % rem. 30′. Please respond by ranking the labels in the order requested.
4, 5, 3, 2, 1
(4: 1%, 5: 11%, 3: 23%, 2: 44%, 1: 80%)
